These measurements were taken from the supplement of paper PMC10567573.

B1: CCDC6 (parent)
chain: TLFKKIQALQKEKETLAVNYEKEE

Variants of: B1
Assay: protein stability index of a GFP-peptide fusion (GPS, HEK-293T) (PSI 1-6); higher = more stable;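 also: lentivirally expressed fusions sorted by FACS into six bins by GFP to DsRed ratio, PSI derived from sequencing read proportions per bin multiplied by bin number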
Conditions: c terminus: a fixed tail appended
EXPERIMENTAL_READOUT: protein stability index
Please reply with the value in numeric form only.

Examples with their reported protein stability index follow.
[[record]]
variant_label = "N19T"
experimental_readout = "protein stability index"
measured_value = 3.34

[[record]]
variant_label = "A8C"
experimental_readout = "protein stability index"
measured_value = 3.15

[[record]]
variant_label = "A8G"
experimental_readout = "protein stability index"
measured_value = 3.72

[[record]]
variant_label = "V18Q"
experimental_readout = "protein stability index"
measured_value = 3.21

[[record]]
variant_label = "L16A"
experimental_readout = "protein stability index"
measured_value = 3.32

[[record]]
variant_label = "N19L"
experimental_readout = "protein stability index"
measured_value = 2.41


Ask: Request the reported protein stability index associated with K4F
Reply: 3.44

Ask: Reported protein stability index for L2E : what is it?
Reply: 5.56

Ask: Reported protein stability index, variant F3T : ____
Reply: 5.1

Ask: Name the recorded protein stability index for K13C .
Reply: 2.28

Ask: Dear colleague, I am looking for the recorded protein stability index of the following variant: N19H
Reply: 3.08
